Cited source: patent US9120775B2

Kindly supply the reported pIC50 values for the records listed here.
Molecular target: 1b (BK) NS5BΔ21 (Hepatitis C virus genotype 1b, UniProt P26663)
Construct: 100 nM 1b (BK) NS5BΔ21
Sequence (P26663 2420-2989, stated change not applied): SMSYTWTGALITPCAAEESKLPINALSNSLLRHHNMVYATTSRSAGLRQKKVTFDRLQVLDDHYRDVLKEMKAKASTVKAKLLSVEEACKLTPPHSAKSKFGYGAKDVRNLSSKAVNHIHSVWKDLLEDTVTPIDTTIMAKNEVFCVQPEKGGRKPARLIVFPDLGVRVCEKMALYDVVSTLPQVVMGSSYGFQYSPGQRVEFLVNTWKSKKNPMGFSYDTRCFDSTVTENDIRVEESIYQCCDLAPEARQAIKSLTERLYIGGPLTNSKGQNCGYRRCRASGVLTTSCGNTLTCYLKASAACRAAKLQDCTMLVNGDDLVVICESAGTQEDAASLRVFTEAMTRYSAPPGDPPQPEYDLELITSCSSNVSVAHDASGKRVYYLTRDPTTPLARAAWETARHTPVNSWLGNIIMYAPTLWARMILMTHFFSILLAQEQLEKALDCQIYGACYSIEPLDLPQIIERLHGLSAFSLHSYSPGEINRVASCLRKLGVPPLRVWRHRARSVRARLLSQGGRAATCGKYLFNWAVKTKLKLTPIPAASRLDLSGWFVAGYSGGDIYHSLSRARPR
Assay: HCV polymerase inhibition assay
Assay type: biochemical
pIC50: −log10 of the molar value.

Challenge: Recorded pIC50 of CNC(=O)c1c2cc(C3CC3)c(N(CCC3(C)COC3)S(C)(=O)=O)cc2nn1-c1ccc(Cl)cc1 , please.
Response given: > 7.00

Challenge: Could you tell me which pIC50 is on file for CNC(=O)c1c2cc(C3CC3)c(N(CCC3CN(C)C3)S(C)(=O)=O)cc2nn1-c1ccc(Cl)cc1 ?
Response given: 6.31 to 7.00

Challenge: Need pIC50 of CNC(=O)c1c2cc(C3CC3)c(N(CCC3COC3C)S(C)(=O)=O)cc2nn1-c1ccc(Cl)cc1 (stereo not shown) , thanks.
Response given: 6.31 to 7.00

Challenge: # query: pIC50 of entry CNC(=O)c1c2cc(C3CC3)c(N(CCC3CCO3)S(C)(=O)=O)cc2nn1-c1ccc(Cl)cc1 (stereo not shown)
Response given: 6.31 to 7.00
